B1: Azurin, P00282 (parent)
chain: MLRKLAAVSLLSLLSAPLLAAECSVDIQGNDQMQFNTNAITVDKSCKQFTVNLSHPGNLPKNVMGHNWVLSTAADMQGVVTDGMASGLDKDYLKPDDSRVIAHTKLIGSGEKDSVTFDVSKLKEGEQYMFFCTFPGHSALMKGTLTLK

# Variants of: B1
# COND: Pseudomonas aeruginosa (strain ATCC 15692 / DSM 22644 / CIP 104116 / JCM 14847 / LMG 12228 / 1C / PRS 101 / PAO1); pH 7; Thermal; Absorbance; Phosphate 10 mM; reversible: No; structure 5AZU; whole UniProt chain shown
EXPERIMENTAL ENDPOINT: Tm (°C)
Report only the number, with the unit °C understood.

Quick one: Tm for MLRKLAAVSLLSLLSAPLLAAECSVDIQGNDQMQFNTNAITVERSCKQFTVNLSHPGNLPKNVMGHNWVLSTAADMQGVVTDGMASGLDKDYLKPDDSRVIAHTKLIGSGEKDSVTFDVSKLKEGEQYMFFCTFPGHSALMKGTLTLR [D43E K148R K44R] ?
75

Similarly, MLRKLAAVSLLSLLSAPLLAAECSVDIQGNDQMQFNTNAITVDRSCKQFTVNLSHPGNLPKNVMGHNWVLSTAADMQGVVTDGMASGLDKDYLKPDDSRVIAHTKLIGSGEKDSVTFDVSKLKEGEQYMFFCTFPGHSALMKGTLTLK [K44R] ?
76

Similarly, MLRKLAAVSLLSLLSAPLLAAECSVDIQGNDQMQFNTNAITVEKSCKQFTVNLSHPGNLPKNVMGHNWVLSTAADMQGVVTDGMASGLDKDYLKPDDSRVIAHTKLIGSGEKDSVTFDVSKLKEGEQYMFFCTFPGHSALMKGTLTLR [D43E K148R] ?
74

Similarly, MLRKLAAVSLLSLLSAPLLAAECSVDIQGNDQMQFNTNAITVDKSCKQFTVNLSHPGNLPKNVMGHNWVLSTAADMQGVVTCGMASGLDKDYLCPDDSRVIAHTKLIGSGEKDSVTFDVSKLKEGEQYMFFCTFPGHSALMKGTLTLK [D82C K94C] ?
78
